- System: LOX IMVI melanoma
- experimental.details: NCI tumour cell line growth inhibition, 48 h; in the data active = GI50 below about 0.43 µM; inactive = the rest
Labels: 1 (yes) for active, 0 (no) for inactive

{"columns": ["compound", "system.name", "answer.label"],
 "data": [
  ["CC(=O)c1ccc2c(c1)c1cc(C(C)=O)ccc1n2CCNC(C)C", "LOX IMVI melanoma", "1 (yes)"],
  ["NS(=O)(=O)c1ccc(Nc2cc(-c3cccc(O)c3)[nH]n2)cc1", "LOX IMVI melanoma", "0 (no)"],
  ["O=C(Cc1ccc(/C=C/C(=O)c2ncc[nH]2)cc1)Nc1ccc(F)cc1", "LOX IMVI melanoma", "0 (no)"],
  ["COCC1CCCN1c1ccc(C=N/C(C#N)=C(\\N)C#N)cc1 (configuration not stated)", "LOX IMVI melanoma", "0 (no)"],
  ["COc1cc(C2Cc3ncccc3-c3[nH]c(=O)c4cccnc4c32)cc(OC)c1OC (configuration not stated)", "LOX IMVI melanoma", "0 (no)"],
  ["CCOC(=O)c1cc(C(=O)c2cc(OC)c(OC)c(OC)c2)n2ncccc12", "LOX IMVI melanoma", "0 (no)"],
  ["COc1ccc(/C=C/C(=O)c2cc(OC)c(OC)c(OC)c2)cc1OCC(=O)Nc1nc2ccc(OC(F)(F)F)cc2s1", "LOX IMVI melanoma", "0 (no)"],
  ["CC(C)(C)c1ccc(S(=O)(=O)Oc2ccc3c4c(c(=O)oc3c2)CCCCC4)cc1", "LOX IMVI melanoma", "0 (no)"],
  ["O=c1[nH]c2ccccc2c2ccccc12", "LOX IMVI melanoma", "0 (no)"],
  ["Fc1cc2[nH]ncc2c2c3c(c(-c4cn[nH]c4C(F)(F)F)nc12)CCCC3", "LOX IMVI melanoma", "0 (no)"],
  ["COc1ccc(C2=N[C@@H](Cc3ccccc3)C(=O)Nc3ccsc32)cc1", "LOX IMVI melanoma", "0 (no)"],
  ["C/C(=N\\NC(=S)N1CCCCC1)c1ccccn1", "LOX IMVI melanoma", "1 (yes)"]
]}

###

- System: SR leukemia
- experimental.details: NCI tumour cell line growth inhibition, 48 h; in the data active = GI50 below about 0.43 µM; inactive = the rest
Outcome codes: class 1 = active, class 0 = inactive

{"columns": ["molecule", "system.name", "answer.label"],
 "data": [
  ["COC[C@@H](N=C1NC(=O)/C(=C/c2ccc3ncccc3c2)S1)c1ccccc1", "SR leukemia", "class 0"],
  ["Cc1cc(O)c(=O)cc2c1C[C@H]1CC(C)(C)/C=C/C[C@]3(C)Oc4cc(=O)c(O)cc(C)c4C[C@H]3C[C@H](O)[C@@]1(C)O2", "SR leukemia", "class 1"],
  ["O=[N+]([O-])c1cccc2nc3ccccc3c(NCCCn3ccnc3[N+](=O)[O-])c12", "SR leukemia", "class 1"],
  ["CCN1C(=S)N(c2ccccc2)C2NC(=S)N(/N=C/C=C/c3ccccc3OC)C21 (centres undefined)", "SR leukemia", "class 1"],
  ["O=C(Oc1cccc2cccnc12)c1cc2c(cc1Cl)SC(N(c1ccc(F)cc1)S(=O)(=O)c1ccc(Br)s1)=NS2(=O)=O", "SR leukemia", "class 0"],
  ["COc1cc(C2Cc3ncccc3-c3[nH]c(=O)c4cccnc4c32)cc(OC)c1OC (centres undefined)", "SR leukemia", "class 1"],
  ["CS(=O)(=O)Nc1cncc(-c2ccc3ncnc(Nc4ccc(F)c(Cl)c4)c3c2)c1", "SR leukemia", "class 0"],
  ["C=C1CC[C@@H]2[C@](C)(COC(C)=O)[C@H](OC(C)=O)CC[C@@]2(C)[C@@H]1CC(Nc1ccc(S(=O)(=O)NC(C)=O)cc1)C1=CCOC1=O (some centres undefined)", "SR leukemia", "class 0"],
  ["O=C(Cc1ccc(/C=C/C(=O)c2ncc[nH]2)cc1)Nc1ccc(F)cc1", "SR leukemia", "class 0"],
  ["C/C(=N\\NC(=S)N1CCCCC1)c1ccccn1", "SR leukemia", "class 1"],
  ["CCN(CCCN(C)C)Cc1cc(I)cc(C)c1O", "SR leukemia", "class 0"],
  ["COc1ccc(C2=N[C@@H](Cc3ccccc3)C(=O)Nc3ccsc32)cc1", "SR leukemia", "class 0"],
  ["O=C(Nc1ccc2[nH]nc(-c3ccncc3)c2c1)[C@@H]1CCN(CC(=O)N2CCN(c3ccc(-c4ncccn4)cc3)CC2)C1", "SR leukemia", "class 0"],
  ["NS(=O)(=O)c1ccc(Nc2cc(-c3cccc(O)c3)[nH]n2)cc1", "SR leukemia", "class 0"]
]}

###

- Test system: TK-10 renal
- experimental.details: NCI tumour cell line growth inhibition, 48 h; in the data active = GI50 below about 0.43 µM; inactive = the rest
Possible outcomes: True = active, False = inactive

{"columns": ["molecule", "answer.label"],
 "data": [
  ["COCC1CCCN1c1ccc(C=N/C(C#N)=C(\\N)C#N)cc1 (stereo not drawn)", "False"],
  ["CCN(Cc1ccc(C)cc1)c1ccc(CO)c(Cl)c1", "True"],
  ["CCOC(=O)c1ccc(NC(=O)Nc2nncs2)cc1", "False"],
  ["COc1ccc(C2CC(c3cccc(Nc4ccnc5cc(Cl)ccc45)c3)=NN2C=O)cc1 (stereo not drawn)", "False"],
  ["Cc1nc2ccc(Nc3nc(Cl)nc(N4CCOCC4)n3)cc2n1Cc1ccccc1", "False"],
  ["O=Nc1ccc(O)c(=O)cc1", "False"],
  ["O=C(Oc1cccc2cccnc12)c1cc2c(cc1Cl)SC(N(c1ccc(F)cc1)S(=O)(=O)c1ccc(Br)s1)=NS2(=O)=O", "False"],
  ["CCN(CC)c1ccc(/C=N/NC(=O)CSc2nc3ccccc3c(=O)n2CCc2ccc(S(N)(=O)=O)cc2)c(O)c1", "False"],
  ["Cc1nc([P+](c2ccccc2)(c2ccccc2)c2ccccc2)c(Sc2sc(-c3ccccc3)nc2[P+](c2ccccc2)(c2ccccc2)c2ccccc2)o1", "False"],
  ["Cc1cc(S(=O)(=O)Nc2nc3ccccc3o2)c(SCc2ccccc2)cc1Cl", "False"],
  ["CC(=O)Nc1ccc2c(c1)C(c1ccccc1Cl)=Nc1c(n[nH]c1C)N2", "False"],
  ["OCCN1CCN(CCCN2c3ccccc3Sc3ccc(Cl)cc32)CC1", "False"],
  ["COCCNCc1ccc(-c2cc3nccc(Oc4ccc(NC(=S)NC(=O)Cc5ccc(F)cc5)cc4F)c3s2)nc1", "False"]
]}

###

- Test system: U251 CNS
- experimental.details: NCI tumour cell line growth inhibition, 48 h
The reader will find reported log10 of TGI values listed item by item below.
measured.property: log10 of TGI (log10 of the value in µM)

{"columns": ["molecule", "test.value"],
 "data": [
  ["Cn1c(=O)[nH]c2nncnc2c1=O", 2.49],
  ["COc1ccc(C2CC(c3cccc(Nc4ccnc5cc(Cl)ccc45)c3)=NN2C=O)cc1 (configuration not stated)", 0.60],
  ["C=C1C(=O)O[C@H]2C/C(C)=C/CC[C@@]3(C)O[C@](C)(CC[C@@H]3I)[C@@H](I)C[C@@H]12", 1.07],
  ["O=[N+]([O-])c1cccc2nc3ccccc3c(NCCCn3ccnc3[N+](=O)[O-])c12", -2.75],
  ["OCCN1CCN(CCCN2c3ccccc3Sc3ccc(Cl)cc32)CC1", 0.64],
  ["COc1ccc(C(=O)C2=NON3OC23C(=O)c2ccc(OC)cc2)cc1 (configuration not stated)", 1.48],
  ["Fc1cccc(COc2ccc(Nc3ncnc4sc(-c5cccs5)cc34)cc2Cl)c1", 1.20],
  ["CCOC(=O)c1ccc(NC(=O)Nc2nncs2)cc1", 1.10],
  ["O=Nc1ccc(O)c(=O)cc1", 1.06]
]}

###

Recorded TGI by entry
- Test system: HT29 colon
- experimental.details: NCI tumour cell line growth inhibition, 48 h
Starred links: 1 amine or outer side, 2 acyl side, 3 side chain; linkers in the order of their positions; H or OH if unused. Positions of bridges follow the written chain, without caps; N, C: chain ends. Non-standard residues stand in square brackets, D forms with d. Residues, ends and D or L forms follow the SMILES beside them. Chains are numbered I, II in the order given. Actinocin(1to9) = Cc1c2oc3c(C)ccc(C(=O)[*:2])c3nc-2c(C(=O)[*:1])c(N)c1=O; NMeV = CN[CH](C(=O)O)C(C)C; Sar = CNCC(=O)O

{"columns": ["molecule", "TGI"],
 "data": [
  ["N#Cc1nc(CCN2C(=O)c3ccccc3C2=O)oc1N", "> 100 µM"],
  ["C=C1C(=O)O[C@H]2C/C(C)=C/CC[C@@]3(C)O[C@](C)(CC[C@@H]3I)[C@@H](I)C[C@@H]12", "14.9 µM"],
  ["CC(=O)C1=C(C)N2C(=NC3=C(CCc4ccccc43)C2c2ccc(F)cc2)S1 (centres undefined)", "> 100 µM"],
  ["CC(C)OC(=O)c1ccc(CCC2=CC(=O)C=CC2=O)cc1", "33.1 µM"],
  ["CCOC(=O)C(/C(=N/S(=O)(=O)c1cc(C)c(Cl)cc1[S-])[n+]1ccc(N(C)C)cc1)=C(/O)c1ccc([N+](=O)[O-])cc1", "55.4 µM"],
  ["COc1ccc(C/C(=N/O)C(=O)NCCc2cc(Br)c(OCCCN(C)C)c(Br)c2)cc1Br", "19.1 µM"],
  ["COc1cc(Nc2nc3cc(N)cc(N)c3nc2-c2ccccc2)cc(OC)c1OC", "35 µM"],
  ["CC1=Nc2ccccc2S/C1=C(/C)NNS(=O)(=O)c1ccc(C)cc1", "> 100 µM"],
  ["CCC(C)C1NC(=O)C(NC(=O)c2c3nc4c(C(=O)NC5C(=O)NC(C(C)CC)C(=O)N6CCCC6C(=O)N(C)CC(=O)N(C)C(C(C)C)C(=O)OC5C)ccc(C)c4oc-3c(C)c(=O)c2N)C(C)OC(=O)C(C(C)C)N(C)C(=O)CN(C)C(=O)C2CCCN2C1=O (centres undefined) (I: TIP[Sar][NMeV] / II: TIP[Sar][NMeV]; ester I:1-I:C, II:1-II:C; linker I:N-II:N via Actinocin(1to9); configuration not given here)", "11.5 µM"],
  ["C[C@@H](NC1CCCC[C@H]1O)c1ccccc1 (some centres undefined)", "> 100 µM"],
  ["COC(=O)/C(C#N)=C(\\Nc1ccccc1)N1CCOCC1", "> 100 µM"],
  ["CCOc1cc(C2SCC(=O)N2c2ccc(Oc3ccc(Cl)cc3)c(Cl)c2)ccc1O (centres undefined)", "31.8 µM"],
  ["CN(CCN1C(=O)c2cc([N+](=O)[O-])cc3cc([N+](=O)[O-])cc(c23)C1=O)CCN1C(=O)c2cc([N+](=O)[O-])cc3cc([N+](=O)[O-])cc(c23)C1=O", "> 100 µM"],
  ["N#Cc1cccc2c1Nc1ccccc1S2", "> 100 µM"],
  ["COc1ccc(C2CC(c3cccc(Nc4ccnc5cc(Cl)ccc45)c3)=NN2C=O)cc1 (centres undefined)", "1.54 µM"],
  ["Nc1nc2c3nc(Nc4ccccc4)sc3nc(=S)n2c2sc(Nc3ccccc3)nc12", "> 100 µM"],
  ["O=[N+]([O-])c1cccc2nc3ccccc3c(NCCCn3ccnc3[N+](=O)[O-])c12", "0.00124 µM"],
  ["N.N.N.N.N.[Co+3].[I-].[N-]=[N+]=[N-]", "> 100 µM"],
  ["CC(C)c1[nH]nc(C(N)=O)c1N=NN(C)C", "> 100 µM"],
  ["COC(=O)C(C(=O)C(=O)Nc1c(C)cccc1C)c1cnc2ccccc2n1 (centres undefined)", "> 100 µM"],
  ["COC(=O)c1n[nH]c(C)c1N=NN(C)CCC#N", "87.8 µM"],
  ["COc1ccccc1NC(=S)NN=C(C)c1cccc(C(C)=NNC(=S)Nc2ccccc2OC)n1", "> 100 µM"],
  ["O=c1ccc2nc3cc(Br)ccc3sc-2c1", "> 100 µM"],
  ["CCOC(=O)/C(=C/N1CCN(C(=O)c2ccco2)C1=S)C(=O)c1ccccc1", "> 50 µM"],
  ["O=c1oc2ccccc2nc1/C=C(\\O)c1ccc(Cl)cc1", "> 100 µM"],
  ["O=C1NC(=O)C(F)(n2cc(F)c(=O)[nH]c2=O)C(O)N1 (centres undefined)", "> 10 µM"],
  ["CCCNC(=S)/N=C/c1c(O)cc(C)oc1=O", "> 100 µM"],
  ["COc1nc2[nH]ccc2c(=O)[nH]1", "> 100 µM"],
  ["CN(C)CCCc1cccc2[nH]c3c(c12)CN(C)CC3", "> 100 µM"],
  ["CN1C(=O)CCC1(O)C1C=CC=CC1 (centres undefined)", "> 100 µM"],
  ["OC(c1ccccc1)(c1ccccc1)c1nccc2ccccc12", "> 100 µM"],
  ["c1ccc2c(Cc3[nH]c4ccccc4c3Cc3c[nH]c4ccccc34)c[nH]c2c1", "6.07 µM"],
  ["C=CCn1c(-c2ccc([N+](=O)[O-])cc2)cs/c1=N\\C(P(=O)(O)O)P(=O)(O)O", "> 100 µM"],
  ["COc1c(CC=C(C)C)c(O)c(C(CC(C)C)c2c(O)c3c(c(C(C)=O)c2O)OC(C(C)(C)O)C3)c(O)c1C(C)=O (centres undefined)", "> 12.5 µM"],
  ["c1ccc2sc(SCCSc3nc4ccccc4s3)nc2c1", "> 100 µM"],
  ["COC(=O)C(N)CCCC(N)C(=O)NC(C)C(=O)NC(CCC(=O)NCCNCCNc1c2ccccc2nc2cccc([N+](=O)[O-])c12)C(N)=O (centres undefined)", "47.7 µM"],
  ["CN(C)CCCN1C(=S)N(CCCN(C)C)c2c3ccccc3nc3c([N+](=O)[O-])ccc1c23", "12 µM"],
  ["CN(C)C=Nc1ccn(CCO)c(=O)n1", "> 100 µM"],
  ["O=C1/C(=C\\Oc2ccc(F)cc2)N2CCC1CC2", "> 100 µM"]
]}
